- ASSAYED_SYSTEM: full-length beta-Catenin (Uniprot ID P35222) (Homo sapiens (Human)) (UniProt P35222)
- Sequence (P35222 whole entry): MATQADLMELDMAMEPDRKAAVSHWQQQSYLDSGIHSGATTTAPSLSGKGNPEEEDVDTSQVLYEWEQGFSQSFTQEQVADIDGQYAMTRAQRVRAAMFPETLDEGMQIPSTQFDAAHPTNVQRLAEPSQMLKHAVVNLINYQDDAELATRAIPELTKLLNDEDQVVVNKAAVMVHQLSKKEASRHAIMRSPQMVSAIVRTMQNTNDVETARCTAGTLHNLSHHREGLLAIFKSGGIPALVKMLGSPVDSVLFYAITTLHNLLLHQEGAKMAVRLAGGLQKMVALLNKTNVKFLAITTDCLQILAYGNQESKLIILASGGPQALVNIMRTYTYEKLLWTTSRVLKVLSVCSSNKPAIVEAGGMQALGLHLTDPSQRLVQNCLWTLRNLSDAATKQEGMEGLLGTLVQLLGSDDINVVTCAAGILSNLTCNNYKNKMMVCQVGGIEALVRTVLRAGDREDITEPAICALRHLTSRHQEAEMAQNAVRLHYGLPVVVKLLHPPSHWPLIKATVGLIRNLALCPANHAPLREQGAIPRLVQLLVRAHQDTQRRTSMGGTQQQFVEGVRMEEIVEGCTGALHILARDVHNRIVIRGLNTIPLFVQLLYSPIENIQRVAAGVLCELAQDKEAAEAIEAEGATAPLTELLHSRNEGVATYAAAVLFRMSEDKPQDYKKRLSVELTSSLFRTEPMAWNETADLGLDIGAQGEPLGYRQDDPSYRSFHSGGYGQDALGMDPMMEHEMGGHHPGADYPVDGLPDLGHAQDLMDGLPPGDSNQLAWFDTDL
- ASSAY_PROTOCOL: fluorescence polarization competition; 10 nM full-length beta-catenin + 10 nM 5FAM-TCF4(10-53) probe
Starred links: 1 amine or outer side, 2 acyl side, 3 side chain; linkers in the order of their positions; H or OH if unused. Positions of bridges follow the written chain, without caps; N, C: chain ends. Non-standard residues stand in square brackets, D forms with d. Primed or numbered codes have the meaning given here. PyrS2″ = (S)-3-amino-1-((pent-4-en-1-yloxy)carbonyl)pyrrolidine-3-carboxylic acid (stapling residue), C=CCCCOC(=O)N1CC[C@@](N[*:1])(C(=O)[*:2])C1; B5(18) = 2,2-bis(4-pentenyl)glycine (2-amino-2-(pent-4-en-1-yl)hept-6-enoic acid), stitching residue, C=CCCCC(CCCC=C)(N[*:1])C(=O)[*:2]; B5(4) = 2,2-bis(4-pentenyl)glycine = 2-amino-2-(pent-4-en-1-yl)hept-6-enoic acid (stitching residue), C=CCCCC(CCCC=C)(N[*:1])C(=O)[*:2]; B5(5) = 2,2-bis(4-pentenyl)glycine, 2-amino-2-(pent-4-en-1-yl)hept-6-enoic acid (stitching residue), C=CCCCC(CCCC=C)(N[*:1])C(=O)[*:2]; TfeGA = (S)-2-amino-3-((carboxymethyl)(2,2,2-trifluoroethyl)amino)propanoic acid, O=C([C@H](CN(CC(=O)[*:3])CC(F)(F)F)N[*:1])[*:2]; PyrS2 = (S)-3-amino-1-((pent-4-en-1-yloxy)carbonyl)pyrrolidine-3-carboxylic acid, C=CCCCOC(=O)N1CC[C@@](N[*:1])(C(=O)[*:2])C1; R4 = (R)-2-amino-2-methylhex-5-enoic acid, C=CCC[C@@](C)(N[*:1])C(=O)[*:2]; Phe(2-Cl) = N[C@@H](Cc1ccccc1Cl)C(=O)O; dαMeGly(allyl) = C=CC[C@@](C)(N)C(=O)O; Bta = N[C@@H](Cc1csc2ccccc12)C(=O)O; Lys(iPr) = CC(C)NCCCC[C@H](N)C(=O)O; αAllylPro = C=CC[C@@]1(C(=O)O)CCCN1; tBuAla = CC(C)(C)C[C@H](N)C(=O)O; 3Thi = N[C@@H](Cc1ccsc1)C(=O)O
QUANTITY: IC50 (nM)

See these solved cases before continuing.
BINDER	TEST_VALUE
Ac-PD[tBuAla][dαMeGly(allyl)]DDAAFL[PyrS2][3Thi][Bta]Q-NH2 (staple 4-11) [I-1990]	585
Ac-[αAllylPro]D[tBuAla][B5(4)]NTA[Lys(iPr)]FN[PyrS2″][3Thi][Bta]Q-NH2 (staple 1-4, 4-11) [I-2006]	285
Ac-[αAllylPro]D[tBuAla][B5(18)]D[TfeGA]IAFN[PyrS2″][Phe(2-Cl)][Bta]Q-NH2 (staple 1-4, 4-11) [I-1010]	8
Ac-[αAllylPro]D[tBuAla][B5(5)][3Thi][TfeGA]AAFN[PyrS2″]D[Bta]Q-NH2 (staple 1-4, 4-11) [I-1001]	7220
Ac-[αAllylPro]D[tBuAla][B5(4)]NT[Lys(iPr)]AFN[PyrS2″][3Thi][Bta]Q-NH2 (staple 1-4, 4-11; not fully specified; printed as Ac-PL3-Asp-Npg-B5-Asn-Thr-iPrLys-Ala-Phe-Asn-PyrS2-3Thi-BztA-Gln-NH2) [I-2004]	227

(P) Ac-PD[tBuAla][R4]DDAAFL[PyrS2][3Thi][Bta]Q-NH2 (staple 4-11) [I-1989]
(Q) Ac-[αAllylPro]DA[B5(4)]NTAAFN[PyrS2″][3Thi][Bta]Q-NH2 (staple 1-4, 4-11; not fully specified; printed as Ac-PL3-Asp-Ala-B5-Asn-Thr-Ala-Ala-Phe-Asn-PyrS2-3Thi-BztA-Gln-NH2) [I-2003]
(R) Ac-[αAllylPro]D[tBuAla][B5(18)]D[TfeGA]ALFN[PyrS2″][Phe(2-Cl)][Bta]Q-NH2 (staple 1-4, 4-11) [I-1002]
Your job: order these 3 records by IC50, ascending. Order the labels as requested and list them. R, P, Q
(R: 9 nM, P: 186 nM, Q: 1020 nM)
